Data provenance: patent US12065471B2

target: HLA-B*44:05 (Homo sapiens, UniProt P01889, A223V/A65T/A93T/A95T/D201E/D98Y/E176V/E187L/E204Q/E69K/G107R/H137Y/K202T/L105A/L119I/N104T/N87E/Q56L/Q94N/R106L/R155S/R180D/S101N/S121R/S35A/S48T/T118I/V36M/W191S/Y91S); test: MHC binding assay (UV-ligand exchange, β2m ELISA, peptide exchange yield); settings: binding to HLA-B*44:05
MEASURED ATTRIBUTE: Peptide exchange (MHC class I binding score, peptide exchange yield)

# example entries with known answers
SUBSTANCE	VAL
322 (REESDWHYL; listed as Homo sapiens) [compound 322]	+++ (>50 = +++)
418 (GEPRKLLTQDW; listed as Homo sapiens) [compound 418]	+++ (>50 = +++)
203 (REILHAQTL; listed as Homo sapiens) [compound 203]	+++ (>50 = +++)
38 (DEVRFFKGNKY; listed as Homo sapiens) [compound 38]	++ (>20% = ++)
107 (YQENPRAAW; listed as Homo sapiens) [compound 107]	++ (>20% = ++)

// input: 5 substances below; output: Peptide exchange (MHC class I binding score, peptide exchange yield) for each
1. 456 (SESPIRISV; listed as Homo sapiens) [compound 456]
2. 333 (SEGTLPYSY; listed as Homo sapiens) [compound 333]
3. 327 (SEQHSLPVF; listed as Homo sapiens) [compound 327]
4. 387 (GEVQENYKL; listed as Homo sapiens) [compound 387]
5. 450 (REIENGNSF; listed as Homo sapiens) [compound 450]

### Response
1. +++ (>50 = +++)
2. ++ (>20% = ++)
3. +++ (>50 = +++)
4. +++ (>50 = +++)
5. +++ (>50 = +++)
